# measuredOn: T1, CaBdf1 BD2 (GST-tagged, wild-type) (Candida albicans (strain SC5314 / ATCC …, UniProt Q5A4W8))
# T1 chain: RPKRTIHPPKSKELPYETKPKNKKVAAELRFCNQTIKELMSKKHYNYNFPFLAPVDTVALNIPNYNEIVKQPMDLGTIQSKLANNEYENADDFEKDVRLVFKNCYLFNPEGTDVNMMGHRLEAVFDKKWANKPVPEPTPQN
# procedureSummary: histone peptide array (Active Motif MODified), 1 uM GST-tagged bromodomain, anti-GST detection, normalized mean intensity
Square brackets hold non-standard residues; d marks the D form. Ends that are not written are not given here. Arg(Me2a) = CN(C)C(=N)NCCC[C@H](N)C(=O)O; Lys(Me3) = C[N+](C)(C)CCCC[C@H](N)C(=O)O; Arg(Me2s) = CN=C(NC)NCCC[C@H](N)C(=O)O; Lys(Me2) = CN(C)CCCC[C@H](N)C(=O)O; pS = N[C@@H](COP(=O)(O)O)C(=O)O; Me2a = not defined here; me2a = not defined here
Threshold rule: binding score greater than or equal to 0.003 is y; below that, n.

>  <binder>
ARTK(me2)QTAR(me2a)K(me2)STGGKAPRKQ (reading uncertain)

>  <group>
n

$$$$
>  <binder>
SGRGKGGKGLGKGGAKRHR (S G R G K G G K G L G Kac G G A K R H R) [H4 1-19]

>  <group>
y

$$$$
>  <binder>
SGRGKQGGK(Ac)ARAK(Ac)AKSRSS

>  <group>
y

$$$$
>  <binder>
A[Arg(Me2a)]T[Lys(Me3)]QTA[Arg(Me2s)][Lys(Me2)]STGGKAPRKQ

>  <group>
y

$$$$
>  <binder>
ARTKQTARKSTGGKAPRKQ (A Rme2a T Kme2 Q T A Rme2s Kac S T G G K A P R K Q)

>  <group>
y

$$$$
>  <binder>
SGRGKQGGKARAKAKSRSS (not fully specified)

>  <group>
n

$$$$
>  <binder>
ARTKQTARKSTGGKAPRKQ (A R T K Q T A Rme2a K S T G G K A P R K Q)

>  <group>
n

$$$$
>  <binder>
ARTKQTARKSTGGKAPRKQ (A Rme2a T Kme2 Q T A Rme2s Kme1 S T G G K A P R K Q)

>  <group>
y

$$$$
>  <binder>
ARTK(Me3)QTAR(Me2a)K(Ac)STGGKAPRKQ (reading uncertain)

>  <group>
y

$$$$
>  <binder>
PRKQLATKAARK(Ac)[pS]APATGG

>  <group>
n

$$$$
>  <binder>
PRKQLATKAA[Arg(Me2a)]KSAPATGG

>  <group>
n

$$$$
>  <binder>
ARTKQTARKSTGGKAPRKQ (A Rme2a T Kme1 Q T A Rme2s Kme2 S T G G K A P R K Q)

>  <group>
n

$$$$
>  <binder>
ARTKQTARKSTGGKAPRKQ (A R T K Q T A Rme2a Kme3 S pT G G K A P R K Q)

>  <group>
y

$$$$
